The following compounds each carry a recorded pKi for 5-hydroxytryptamine receptor 1A (Homo sapiens).
Keep in mind that pKi stands for -log10 of concentration in molar terms.

// sample CN(C)CCSc1cccc(C2(O)CCCCC2)n1 , its pKi was 7.39

// sample CN(C)CCSc1nc(C(C)(C)C)cs1 , its pKi was 5.66

// sample CN(C)CCSc1cccc(C2CCCCC2)n1 , its pKi was 8.06

// sample CN(C)CCSc1nc(-c2ccncc2)cs1 , its pKi was 7.05

// sample CN(C)CCSc1nc2ccccc2s1 , its pKi was 6.08

// sample CN(C)CCSc1nc(-c2ccccc2)cs1 , its pKi was 6.68

---

Molecular target: 5-hydroxytryptamine receptor 7 (Homo sapiens, UniProt P34969)
Sequence (P34969 whole entry): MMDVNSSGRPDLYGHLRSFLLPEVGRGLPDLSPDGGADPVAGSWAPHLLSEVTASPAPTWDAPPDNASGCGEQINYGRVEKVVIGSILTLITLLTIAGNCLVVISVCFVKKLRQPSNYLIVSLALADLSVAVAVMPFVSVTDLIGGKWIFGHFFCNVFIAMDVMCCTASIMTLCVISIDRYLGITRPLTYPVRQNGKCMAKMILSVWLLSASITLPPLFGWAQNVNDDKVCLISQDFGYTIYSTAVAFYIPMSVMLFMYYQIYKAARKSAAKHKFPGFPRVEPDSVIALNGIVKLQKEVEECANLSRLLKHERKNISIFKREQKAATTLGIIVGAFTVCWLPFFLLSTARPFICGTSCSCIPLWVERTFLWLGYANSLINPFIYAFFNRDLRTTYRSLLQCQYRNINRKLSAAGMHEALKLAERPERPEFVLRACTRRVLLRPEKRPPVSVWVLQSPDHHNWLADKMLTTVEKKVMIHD
RECORDED ENDPOINT: pKi
Keep in mind that pKi stands for -log10 of concentration in molar terms.

CN(C)CCSc1nc(-c2ccncc2)cs1; 7.57

Shifting focus to the molecule that follows.
// sample CN(C)CCSc1cccc(C2(O)CCCCC2)n1 , its pKi was 8.14

---

Reported Ki by item:
Target: D(2) dopamine receptor (Homo sapiens, UniProt P14416)
Sequence (P14416 whole entry): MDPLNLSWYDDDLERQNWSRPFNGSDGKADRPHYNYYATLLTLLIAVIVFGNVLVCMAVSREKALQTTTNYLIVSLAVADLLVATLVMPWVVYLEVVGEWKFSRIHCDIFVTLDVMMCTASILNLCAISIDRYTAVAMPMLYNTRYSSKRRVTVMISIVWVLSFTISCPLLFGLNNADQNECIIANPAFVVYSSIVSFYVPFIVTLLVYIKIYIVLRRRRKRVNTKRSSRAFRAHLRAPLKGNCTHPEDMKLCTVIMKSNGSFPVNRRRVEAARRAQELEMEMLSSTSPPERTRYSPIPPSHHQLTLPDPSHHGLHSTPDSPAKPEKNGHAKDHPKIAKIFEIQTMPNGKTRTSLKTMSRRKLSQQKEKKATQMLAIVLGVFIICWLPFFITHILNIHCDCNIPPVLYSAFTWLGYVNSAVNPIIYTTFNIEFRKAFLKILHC
Assay: Binding affinity towards human dopamine receptor D2 by the displacement of [3H]spiperone radioligand from the cloned receptor expressed in CHO cells
The reply should be a number in nM, with the unit left off.

Known results for compounds:
CN(C)CCSc1cccc(-c2ccccc2)n1; 450
CN(C)CCSc1nc(-c2ccncc2)cs1; 130
CN(C)CCSc1cccc(Br)n1; 870

Shifting focus to the compound that follows.
The recorded Ki with D(2) dopamine receptor (Homo sapiens, UniProt P14416) for CN(C)CCSc1cccc(C2CCCCC2)n1 was 1300

---

Target: 5-hydroxytryptamine receptor 2A (Homo sapiens, UniProt P28223)
Sequence (P28223 whole entry): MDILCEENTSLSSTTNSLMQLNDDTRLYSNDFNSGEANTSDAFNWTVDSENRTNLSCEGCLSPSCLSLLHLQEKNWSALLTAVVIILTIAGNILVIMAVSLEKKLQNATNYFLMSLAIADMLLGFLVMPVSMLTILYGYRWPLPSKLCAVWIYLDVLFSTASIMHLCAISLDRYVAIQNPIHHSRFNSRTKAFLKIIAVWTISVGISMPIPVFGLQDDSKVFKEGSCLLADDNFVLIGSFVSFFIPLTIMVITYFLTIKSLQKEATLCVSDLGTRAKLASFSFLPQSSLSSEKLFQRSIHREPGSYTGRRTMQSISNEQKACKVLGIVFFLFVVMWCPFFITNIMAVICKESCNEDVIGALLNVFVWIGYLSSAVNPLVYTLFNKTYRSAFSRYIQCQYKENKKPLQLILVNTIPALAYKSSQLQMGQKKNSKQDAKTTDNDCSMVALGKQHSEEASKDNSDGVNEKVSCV
Test: Binding affinity towards human 5-hydroxytryptamine 2A receptor by the displacement of [3H]ketanserin radioligand from the cloned receptor expressed in CHO cells
Type: cell-based
Reported Ki by item:
The reply should be a number in nM, with the unit left off.

CN(C)CCSc1cccc(Br)n1; 270

Shifting focus to the molecule that follows.
// sample CN(C)CCSc1cccc(C2CCCCC2)n1 , its Ki was 230

---

Molecular target: 5-hydroxytryptamine receptor 7 (Homo sapiens)
Assay: Binding affinity towards human 5-hydroxytryptamine 7 receptor by the displacement of [3H]-5-HT radioligand from the cloned receptor expressed in CHO cells
Assay type: cell-based
Reported Ki by item:
The reply should be a number in nM, with the unit left off.

Known results for compounds:
Cc1sc(SCCN(C)C)nc1-c1ccccc1; 170
CN(C)CCSc1nc2ccccc2s1; 84

Shifting focus to the compound that follows.
// sample CN(C)CCSc1n[nH]c(-c2ccccc2)n1 , its Ki was 1200
